biological target: human complement Component 5 (C5) (human, UniProt P01031 19-1676, limits assumed); test: cell-based or functional assay
Sequence (P01031 19-1676 limits assumed): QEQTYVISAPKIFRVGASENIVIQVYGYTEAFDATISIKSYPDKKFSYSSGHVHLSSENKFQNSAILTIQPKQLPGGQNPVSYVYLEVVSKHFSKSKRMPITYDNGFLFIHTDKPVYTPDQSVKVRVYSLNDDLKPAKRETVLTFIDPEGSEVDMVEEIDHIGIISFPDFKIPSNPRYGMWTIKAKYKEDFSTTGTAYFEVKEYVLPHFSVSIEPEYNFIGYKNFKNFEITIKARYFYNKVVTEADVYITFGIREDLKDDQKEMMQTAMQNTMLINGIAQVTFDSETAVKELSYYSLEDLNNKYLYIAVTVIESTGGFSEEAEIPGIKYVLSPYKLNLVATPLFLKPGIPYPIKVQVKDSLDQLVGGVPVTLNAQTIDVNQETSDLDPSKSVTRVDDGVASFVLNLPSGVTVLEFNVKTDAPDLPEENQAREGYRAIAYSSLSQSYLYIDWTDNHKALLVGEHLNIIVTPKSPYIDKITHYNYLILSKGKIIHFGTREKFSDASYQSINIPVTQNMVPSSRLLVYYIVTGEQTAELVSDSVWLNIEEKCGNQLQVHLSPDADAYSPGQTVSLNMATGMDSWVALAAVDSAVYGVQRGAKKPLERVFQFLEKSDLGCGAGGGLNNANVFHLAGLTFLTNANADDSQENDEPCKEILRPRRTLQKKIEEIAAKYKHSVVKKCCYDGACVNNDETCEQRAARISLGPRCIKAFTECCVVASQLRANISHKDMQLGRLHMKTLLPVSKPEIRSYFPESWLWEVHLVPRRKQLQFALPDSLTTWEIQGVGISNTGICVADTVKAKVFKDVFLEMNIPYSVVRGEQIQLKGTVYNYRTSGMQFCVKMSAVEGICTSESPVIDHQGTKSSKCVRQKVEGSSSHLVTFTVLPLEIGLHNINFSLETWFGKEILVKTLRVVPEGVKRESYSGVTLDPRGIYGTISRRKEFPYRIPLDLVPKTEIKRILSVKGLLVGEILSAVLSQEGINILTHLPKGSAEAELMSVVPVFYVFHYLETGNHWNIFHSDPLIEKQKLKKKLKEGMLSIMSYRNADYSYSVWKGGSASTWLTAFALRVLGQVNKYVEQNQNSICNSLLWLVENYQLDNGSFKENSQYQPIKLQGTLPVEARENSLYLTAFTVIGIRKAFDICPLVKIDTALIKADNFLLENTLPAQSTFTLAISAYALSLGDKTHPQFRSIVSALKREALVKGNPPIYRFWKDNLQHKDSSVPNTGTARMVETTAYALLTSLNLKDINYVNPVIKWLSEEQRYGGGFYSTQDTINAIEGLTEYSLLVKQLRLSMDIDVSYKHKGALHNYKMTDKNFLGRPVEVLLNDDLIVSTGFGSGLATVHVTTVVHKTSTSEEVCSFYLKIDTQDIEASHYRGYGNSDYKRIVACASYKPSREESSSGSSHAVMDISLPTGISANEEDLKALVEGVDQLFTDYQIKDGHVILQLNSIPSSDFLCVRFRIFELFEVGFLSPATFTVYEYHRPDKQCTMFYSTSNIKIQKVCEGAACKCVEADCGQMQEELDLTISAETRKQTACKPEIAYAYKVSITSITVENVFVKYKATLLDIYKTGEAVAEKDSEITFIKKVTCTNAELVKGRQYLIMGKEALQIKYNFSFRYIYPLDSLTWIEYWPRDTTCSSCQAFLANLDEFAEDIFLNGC
Parameter Measured: IC50 (read off the curve), OD (450nM)

Reported IC50 (read off the curve), OD (450nM) ( H5L1-IgG (antibody, V domains shown) VH: QVQLKQSGAEVKKPGASVKVSCKASGYTFTDEYMNWVRQAPGKSLEWMGYINPNNGGADYNQKFQGRVTMTVDQSISTAYMELSRLRSDDTAVYFCARLGYSNPYFDFWGQGTLVTVSS VL: DIVLTQSPDSLAVSLGERATINCKASQDVNTAVAWYQQKPDQSPKLLIYWASTRHTGVPARFTGSGSGTDYTLTISSLQAEDVAVYFCQQHHVSPWTFGGGTKVEIK ) = ~0.5 µg/mL
